# assayProcedure: clinical
# reportedConditions: both, human, in vivo, 10 mg
readoutName: half-life (h)
Give bare numbers, in h.

Prompt: Sample "CC(C)c1nc(N(C)S(C)(=O)=O)nc(-c2ccc(F)cc2)c1/C=C/[C@@H](O)C[C@@H](O)CC(=O)O" — what was its half-life?
Completion: 13.8

----------
# assayProcedure: clinical
# reportedConditions: both, human, in vivo, 10 mg
readoutName: AUClast GLSM (ng·h/mL)
Answers are plain numbers, in ng·h/mL.

Prompt: # lookup: AUClast GLSM of "CC(C)c1nc(N(C)S(C)(=O)=O)nc(-c2ccc(F)cc2)c1/C=C/[C@@H](O)C[C@@H](O)CC(=O)O"
Completion: 33.2
